normalized growth values, listed per item
Test system: Salmonella enterica serovar Typhimurium SL1344
Protocol Description: normalized growth (OD600, IQM-normalized) in LPM (fraction of plate interquartile mean); higher = more bacterial growth (less inhibition)
Measurement Context: LPM pH 5.8; 10 µM; 16 h
Over roughly 1,600 compounds, “normalized growth (OD600, IQM-normalized) in LPM” has its median near 1; the lowest 2% begin near 0.014. For the sample, the lowest values were picked, then their nearest neighbours and some compounds at random.

[
  {
    "Molecule": "CC[C@H](C)[C@H](N)C1=N[C@H](C(=O)N[C@@H](CC(C)C)C(=O)N[C@H](CCC(=O)O)C(=O)N[C@H](C(=O)N[C@H]2CCCCNC(=O)[C@H](CC(N)=O)NC(=O)[C@@H](CC(=O)O)NC(=O)[C@H](Cc3cnc[nH]3)NC(=O)[C@@H](Cc3ccccc3)NC(=O)[C@H]([C@@H](C)CC)NC(=O)[C@@H](CCCN)NC2=O)[C@@H](C)CC)CS1",
    "normalized growth": 1.06
  },
  {
    "Molecule": "CCCCCCCCCCCCCCCC[N+](C)(C)C",
    "normalized growth": 0.982
  },
  {
    "Molecule": "CC(C)(C)CC(C)(C)c1ccc(O)c(Cc2ccc(Cl)cc2Cl)c1",
    "normalized growth": 0.861
  }
]
